- System name: UniProt:Q9BY41
- Sequence (Q9BY41 whole entry, canonical isoform): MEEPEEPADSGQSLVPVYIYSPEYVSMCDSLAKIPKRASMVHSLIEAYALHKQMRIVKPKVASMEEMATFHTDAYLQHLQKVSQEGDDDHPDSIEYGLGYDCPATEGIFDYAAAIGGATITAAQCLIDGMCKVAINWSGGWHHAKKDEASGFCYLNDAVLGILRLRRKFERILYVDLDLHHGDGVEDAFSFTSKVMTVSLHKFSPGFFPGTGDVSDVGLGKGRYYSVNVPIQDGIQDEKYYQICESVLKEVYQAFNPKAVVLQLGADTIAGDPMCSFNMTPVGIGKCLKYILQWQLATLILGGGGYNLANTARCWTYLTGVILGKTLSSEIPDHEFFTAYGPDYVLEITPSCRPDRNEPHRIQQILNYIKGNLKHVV
- Test protocol: HDAC isoform inhibition (BPS Bioscience)
Outcome measure: IC50 (nM)

>  <Compound structure string>
O=C(CCCCCCn1cc(-c2ccc(O[C@H]3O[C@H](CO)[C@@H](O)[C@H](O)[C@H]3O)cc2)nn1)NO

>  <Value>
843

$$$$

* * *

- System: A549 (lung adenocarcinoma)
- Test protocol: MTS cell viability assay, 72 h
- Format: cell-based
- Condition notes: Table S2; read-out: Anti-proliferation IC50 A549

>  <Compound>
CC(=O)OCC1OC(Oc2ccc(-c3cn(CCCCCCC(=O)NO)nn3)cc2)C(OC(C)=O)C(OC(C)=O)C1OC(C)=O (stereo not shown) [STR-V-167]

>  <System name>
A549 (lung adenocarcinoma)

>  <Unit abbreviation>
µM

>  <Qual>
>

>  <IC50>
100

$$$$
>  <Compound>
CC(=O)O[C@H]1[C@H](Oc2ccc(-c3cn(CCCCCCC(=O)NO)nn3)cc2)O[C@H](C)C[C@@H]1N(C)C [STR-V-165]

>  <System name>
A549 (lung adenocarcinoma)

>  <Unit abbreviation>
µM

>  <Qual>
=

>  <IC50>
33.7

$$$$
>  <Compound>
O=C(CCCCCCn1cc(-c2ccc3cc(O[C@@H]4O[C@H](CO)[C@@H](O)[C@H](O)[C@H]4O)ccc3c2)nn1)NO [STR-II-36]

>  <System name>
A549 (lung adenocarcinoma)

>  <Unit abbreviation>
µM

>  <Qual>
=

>  <IC50>
20.1

$$$$
>  <Compound>
O=C(CCCCCCn1cc(-c2ccc3cc(O[C@H]4O[C@H](CO)[C@@H](O)[C@H](O)[C@H]4O)ccc3c2)nn1)NO [STR-V-114]

>  <System name>
A549 (lung adenocarcinoma)

>  <Unit abbreviation>
µM

>  <Qual>
=

>  <IC50>
77.2

$$$$
>  <Compound>
CC(=O)OCC1OC(Oc2ccc3cc(-c4cn(CCCCCCC(=O)NO)nn4)ccc3c2)C(OC(C)=O)C(OC(C)=O)C1OC(C)=O (stereo not shown) [STR-V-177]

>  <System name>
A549 (lung adenocarcinoma)

>  <Unit abbreviation>
µM

>  <Qual>
=

>  <IC50>
39.6

$$$$
>  <Compound>
O=C(CCCCCCn1cc(-c2ccc(O[C@@H]3O[C@H](CO)[C@@H](O)[C@H](O)[C@H]3O)cc2)nn1)NO [STR-I-195]

>  <System name>
A549 (lung adenocarcinoma)

>  <Unit abbreviation>
µM

>  <Qual>
>

>  <IC50>
100

$$$$
>  <Compound>
CC(=O)OCC1OC(Oc2ccc(-c3cn(CCCCCCC(=O)NO)nn3)cc2)C(OC(C)=O)C(OC(C)=O)C1OC(C)=O (stereo not shown) [STR-V-176]

>  <System name>
A549 (lung adenocarcinoma)

>  <Unit abbreviation>
µM

>  <Qual>
=

>  <IC50>
64.7

$$$$

Data origin, for the record: paper PMC11475281
